Exercise: for every item that follows, state its recorded cell viability.
- Tested on: U2OS
- MEASUREMENT PROTOCOL: cell viability relative to DMSO; higher = less toxic
- EXPERIMENTAL PARAMETERS: 72 h; 100 nM
Supply the numeric figure in %, leaving out any unit text.

Qu. I'd like to know its cell viability. The compound in question is "CC(C)[C@@H](CN1CC[C@@](C)(c2cccc(O)c2)[C@@H](C)C1)NC(=O)[C@H]1Cc2ccc(O)cc2CN1"
Ans. 95.5

Qu. And the next one, "Nc1ncnc2c1ncn2[C@H]1O[C@@H](C(=O)N2CCN(CC(=O)Nc3cccc4c3CNC4=O)CC2)[C@H](O)[C@@H]1O" ?
Ans. 102

Qu. And the next one, "O=C(Nc1cc(C(F)(F)F)cc(C(F)(F)F)c1)c1cnc(Cl)nc1C(F)(F)F" ?
Ans. 102

Qu. And the next one, "CNC(=O)[C@@H](NC(=O)[C@H](CC(C)C)[C@H](O)C(=O)NO)C(C)(C)C" ?
Ans. 92.9

Qu. And the next one, "Cn1cc(-c2ccc(F)c(C(F)(F)F)c2)nc1C1CCN(c2ncnc3[nH]ncc23)CC1" ?
Ans. 90.3

Qu. And the next one, Cc1ccc(C[N+](C)(C)C)o1 [5-methylfurmethiodide] ?
Ans. 102

Qu. And the next one, "N[C@H](Cc1ccccc1)C(=O)O" ?
Ans. 96.5

Qu. And the next one, "CCCCC/C=C\C/C=C\C/C=C\CCCCC(=O)O" ?
Ans. 98.9

Qu. And the next one, C=C1C(=O)O[C@@H]2/C=C(\C)CC/C=C(\C)CC[C@@H]12 [costunolide] ?
Ans. 94.3

Qu. And the next one, N[C@@H](Cc1ccc(O)cc1)C(=O)O [plovamer-acetate] ?
Ans. 102

Qu. And the next one, "C=C(C)[C@@H]1CC[C@]2(CO)CC[C@]3(C)[C@H](CC[C@@H]4[C@@]5(C)CC[C@H](O)C(C)(C)[C@@H]5CC[C@]43C)[C@@H]12" ?
Ans. 103

Qu. And the next one, COc1cc(NC(C)CCCN)c2ncccc2c1 (stereo unspecified) ?
Ans. 102

Qu. And the next one, "Cc1onc(-c2ccccc2)c1-c1ccc(S(N)(=O)=O)cc1" ?
Ans. 97.8

Qu. And the next one, "CSCC[C@H](NC(=O)[C@H](CC(C)C)NC(=O)[C@@H](Cc1c[nH]c2ccccc12)NC(=O)[C@H](Cc1ccccc1)N(C)C(=O)[C@@H](Cc1c[nH]c2ccccc12)NC(=O)[C@@H](N)CCCNC(=N)N)C(N)=O" ?
Ans. 97.7

Qu. And the next one, "CC(C)CNc1ccnc(NCc2csc(-c3ccccc3)n2)n1" ?
Ans. 102

Qu. And the next one, "NCCC(=O)N[C@@H](Cc1c[nH]cn1)C(=O)O" ?
Ans. 92.3

---

- System: Calu-3
- MEASUREMENT PROTOCOL: cell viability relative to DMSO; higher = less toxic
- EXPERIMENTAL PARAMETERS: 72 h; 1000 nM
Exercise: for every item that follows, state its recorded cell viability.
Supply the numeric figure in %, leaving out any unit text.

Qu. I'd like to know its cell viability. The compound in question is CC1C(=O)OC2C(O)C34C5CC(C(C)(C)C)C36C(OC(=O)C6O)OC4(C(=O)O5)C12O (stereo not drawn) [ginkgolide-B]
Ans. 98.6

Qu. And the next one, C1=Cc2cccc(OCC3CNCCO3)c2C1 (stereo not drawn) ?
Ans. 97.1

Qu. And the next one, "COc1ccc(S(=O)(=O)Nc2c(C)cc(C)cc2C)cc1" ?
Ans. 106

Qu. And the next one, CCOC(=O)C1=C(C)NC(C)=C(C(=O)OC)[C@@H]1c1cccc([N+](=O)[O-])c1 (racemic) ?
Ans. 86.5

Qu. And the next one, "C[C@H](Nc1ncnc2nc[nH]c12)c1cc2cccc(Cl)c2c(=O)n1-c1ccccc1" ?
Ans. 88.9

Qu. And the next one, Oc1cc2c(cc1O)C(c1ccccc1)CNCC2 (stereo not drawn) ?
Ans. 99.6

Qu. And the next one, COc1ccc2cc(-c3nc(-c4ccc([S+](C)[O-])cc4)[nH]c3-c3ccncc3)ccc2c1 (stereo not drawn) ?
Ans. 98.1

Qu. And the next one, Cc1cc(C)cc(C(=O)O[C@H]2C[C@H]3CC[C@@H](C2)N3C)c1 [tropanyl-3,5-dimethylbenzoate] ?
Ans. 106

---

- Tested on: U2OS
- MEASUREMENT PROTOCOL: cell viability relative to DMSO; higher = less toxic
- EXPERIMENTAL PARAMETERS: 72 h; 10000 nM
Note to self: cell viability under 90% means true (1), ties and anything higher get false (0).

Qu. Criterion: cell viability strictly below 90%. Is it met by "Cn1nc(-c2cccc(F)c2)n(C)c1=S" ?
Ans. false (0)

Qu. And the next one, "Nc1nc(N)c2nc(-c3cccc(O)c3)cnc2n1" ?
Ans. true (1)

Qu. And the next one, "Cc1ccsc1C(=CCCN1CCC[C@@H](C(=O)O)C1)c1sccc1C" ?
Ans. false (0)

Qu. And the next one, "CNC(=O)c1cccc(-c2ccc3c(N4CCOC[C@@H]4C)nc(N4CCOC[C@@H]4C)nc3n2)c1" ?
Ans. true (1)

Qu. And the next one, Nc1ccc(S(N)(=O)=O)cc1 [sulfanilamide] ?
Ans. false (0)

Qu. And the next one, "NCCC(=O)N[C@@H](Cc1c[nH]cn1)C(=O)O" ?
Ans. true (1)

Qu. And the next one, CC[N+](C)(CC)CCOC(=O)C(O)(c1ccccc1)C1CCCCC1 (stereo not given) ?
Ans. false (0)

Qu. And the next one, CC(=O)Nc1ccccc1 [acetanilide] ?
Ans. false (0)

Qu. And the next one, O=C(Nc1cccc2cccnc12)c1ccc(N2C(=O)[C@@H]3[C@H](C2=O)[C@@H]2C=C[C@H]3C2)cc1 [endo-IWR-1] ?
Ans. false (0)

---

- Tested on: Caco-2
- MEASUREMENT PROTOCOL: cell viability relative to DMSO; higher = less toxic
- EXPERIMENTAL PARAMETERS: 72 h; 100 nM
ASSAY METRIC: cell viability (%)
Supply the numeric figure in %, leaving out any unit text.

Qu. I'd like to know its cell viability. The compound in question is c1ccc(-c2ccc(C(c3ccccc3)n3ccnc3)cc2)cc1 (centres undefined)
Ans. 96.1

Qu. And the next one, O=C(O)/C=C(/CC(=O)O)C(=O)O [cis-aconitic-acid] ?
Ans. 98.6

Qu. And the next one, "Cc1ccc(NC2=CC(=O)c3sc(C)nc3C2=O)cc1" ?
Ans. 92.7

Qu. And the next one, "O=S(=O)(O)c1ccc(-c2c3nc(c(-c4ccc(S(=O)(=O)O)cc4)c4ccc([nH]4)c(-c4ccc(S(=O)(=O)O)cc4)c4nc(c(-c5ccc(S(=O)(=O)O)cc5)c5ccc2[nH]5)C=C4)C=C3)cc1" ?
Ans. 91.4

---

- System: Caco-2
- MEASUREMENT PROTOCOL: cell viability relative to DMSO; higher = less toxic
- EXPERIMENTAL PARAMETERS: 72 h; 10000 nM
Exercise: for every item that follows, state its recorded cell viability.
Supply the numeric figure in %, leaving out any unit text.

Qu. Please provide the recorded cell viability for c1ccc(-c2ccc(C(c3ccccc3)n3ccnc3)cc2)cc1 (stereo unspecified) , tested on Caco-2.
Ans. 78.7

Qu. And the next one, "O=S(=O)(O)c1ccc(-c2c3nc(c(-c4ccc(S(=O)(=O)O)cc4)c4ccc([nH]4)c(-c4ccc(S(=O)(=O)O)cc4)c4nc(c(-c5ccc(S(=O)(=O)O)cc5)c5ccc2[nH]5)C=C4)C=C3)cc1" ?
Ans. 101

Qu. And the next one, "Cc1c(C)c2c(c(C)c1O)CCC(C)(C)O2" ?
Ans. 71.8

Qu. And the next one, "O=c1cc(-c2ccc(O)c(O)c2)oc2cc(O)cc(O)c12" ?
Ans. 79.3

Qu. And the next one, "Cc1noc(-c2ccc(-c3ccc(CC(=O)O)cc3)cc2)c1NC(=O)O[C@H](C)c1ccccc1" ?
Ans. 94.9

Qu. And the next one, "CO[C@H]1/C=C/O[C@@]2(C)Oc3c(C)c(O)c4c(O)c(c(/C=N/N=C/N5CCCCC5)c(O)c4c3C2=O)NC(=O)/C(C)=C\C=C\[C@H](C)[C@H](O)[C@@H](C)[C@@H](O)[C@@H](C)[C@H](OC(C)=O)[C@@H]1C" ?
Ans. 83.1

Qu. And the next one, "C[C@H](Nc1ncnc2[nH]cnc12)c1nc2ccc(F)cc2c(=O)n1-c1ccccc1" ?
Ans. 74.9

Qu. And the next one, CC1C=CC=CCCC=CC=CC=CC=CC(OC2OC(C)C(O)C(N)C2O)CC2OC(O)(CC(O)C(O)CCC(O)CC(O)CC(O)CC(=O)OC(C)C(C)C1O)CC(O)C2C(=O)O (stereo unspecified) ?
Ans. 103

Qu. And the next one, "Nc1ccccc1NC(=O)c1ccc(CNc2nccc(-c3cccnc3)n2)cc1" ?
Ans. 17.7

Qu. And the next one, "CC(=O)OC[C@H](N)C(=O)O" ?
Ans. 94.9

Qu. And the next one, CCOC(=O)C1=C(C)NC(C)=C(C(=O)OC)[C@@H]1c1cccc([N+](=O)[O-])c1 (racemic) ?
Ans. 82.9

Qu. And the next one, "C[C@@H]1C[C@H]2[C@@H]3C[C@H](F)C4=CC(=O)C=C[C@]4(C)[C@@]3(F)[C@@H](O)C[C@]2(C)[C@@]1(O)C(=O)CO" ?
Ans. 103

Qu. And the next one, CC(CN(C)C)C(C)(O)Cc1ccc(Cl)cc1 (stereo unspecified) ?
Ans. 97.4

Qu. And the next one, CCn1ccnc1CC1COc2ccccc2O1 (stereo unspecified) ?
Ans. 102

Qu. And the next one, "O=C(O)CCCCC(=O)O" ?
Ans. 105

Qu. And the next one, C1=Cc2cccc(OCC3CNCCO3)c2C1 (stereo unspecified) ?
Ans. 90.3
